assayed system: IDE (Homo sapiens, UniProt P14735)
Construct: made in house; host or cells: bacteria
Sequence (P14735 whole entry): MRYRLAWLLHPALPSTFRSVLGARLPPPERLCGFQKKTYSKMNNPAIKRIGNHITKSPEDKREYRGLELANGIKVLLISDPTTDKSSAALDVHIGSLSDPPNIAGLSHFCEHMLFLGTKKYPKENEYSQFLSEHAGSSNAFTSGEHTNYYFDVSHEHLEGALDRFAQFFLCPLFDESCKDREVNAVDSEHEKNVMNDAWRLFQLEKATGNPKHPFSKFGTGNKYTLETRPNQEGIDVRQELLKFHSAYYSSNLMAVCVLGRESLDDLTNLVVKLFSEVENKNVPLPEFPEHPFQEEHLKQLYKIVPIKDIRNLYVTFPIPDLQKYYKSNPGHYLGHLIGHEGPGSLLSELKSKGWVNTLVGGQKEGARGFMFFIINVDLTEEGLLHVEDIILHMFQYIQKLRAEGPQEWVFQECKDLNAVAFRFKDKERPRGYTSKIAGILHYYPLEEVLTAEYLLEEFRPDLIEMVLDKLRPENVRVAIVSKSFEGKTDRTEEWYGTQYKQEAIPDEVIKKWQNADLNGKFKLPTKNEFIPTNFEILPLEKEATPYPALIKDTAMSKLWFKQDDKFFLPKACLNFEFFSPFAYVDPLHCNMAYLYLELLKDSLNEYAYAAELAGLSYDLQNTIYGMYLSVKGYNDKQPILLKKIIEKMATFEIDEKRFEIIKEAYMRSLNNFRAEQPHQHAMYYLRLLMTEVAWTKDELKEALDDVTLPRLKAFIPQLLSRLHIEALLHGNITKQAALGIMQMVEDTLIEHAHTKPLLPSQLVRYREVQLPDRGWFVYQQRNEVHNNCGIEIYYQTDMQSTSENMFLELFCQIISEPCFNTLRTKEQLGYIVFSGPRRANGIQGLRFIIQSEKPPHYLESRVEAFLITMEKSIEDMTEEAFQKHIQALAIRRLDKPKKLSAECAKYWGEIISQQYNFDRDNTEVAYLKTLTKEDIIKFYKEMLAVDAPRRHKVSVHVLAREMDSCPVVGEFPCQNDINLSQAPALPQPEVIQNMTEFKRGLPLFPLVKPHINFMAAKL
protocol details: biochemical
experimental parameters: initial test; percent of initial velocity relative to DMSO-only controls; N 4; read-out: Percent activity at 500 uM, Mean
Bridge positions count the residues as written; N and C are the ends. Peptide text beside a SMILES is read from it.
metric: remaining activity at 500 µM (%)
# unit: % | format: bare number

Please review the entries below; each comes with its answer.
1) CC[C@H](C)[C@@H]1NC(=O)[C@H](CO)NC(=O)[C@H](Cc2c[nH]c3ccccc23)NC(=O)[C@H](Cc2c[nH]c3ccccc23)NC(=O)[C@H](CO)NC(=O)[C@@H](NC(=O)[C@H](C)N)CSSC[C@@H](C(=O)NCC(=O)O)NC(=O)[C@H](CC(C)C)NC(=O)[C@H](Cc2c[nH]cn2)NC1=O [C7C-1] (H-ACSWWSIHLCG-OH; disulfide 2-10 (inferred))
11.4
2) CC(C)C[C@@H]1NC(=O)[C@H](Cc2c[nH]cn2)NC(=O)CNC(=O)[C@H](C)NC(=O)[C@H](CC(N)=O)NC(=O)[C@@H](NC(=O)[C@H](C)N)CSSC[C@@H](C(=O)NCC(N)=O)NC(=O)[C@H](CCC(N)=O)NC(=O)[C@H](CO)NC1=O [C7C-2A] (H-ACNAGHLSQCG-NH2; disulfide 2-10 (inferred))
94.1

Please fill in: remaining activity at 500 µM reported for CC(C)C[C@H](NC(=O)[C@H](CO)NC(=O)[C@@H](N)CCC(N)=O)C(=O)N1CCC[C@H]1C(=O)N[C@@H](Cc1c[nH]c2ccccc12)C(=O)N[C@H]1CSSC[C@@H](C(=O)N[C@H](C(=O)N[C@H](C(=O)O)[C@@H](C)O)C(C)C)NC(=O)[C@H](Cc2c[nH]cn2)NC(=O)[C@@H]2CCCN2C(=O)[C@H](Cc2ccc(O)cc2)NC1=O [P12-3] (H-QSLPWCYPHCVT-OH; disulfide 6-10 (inferred)) = 2
